# Test system: SKBR3 (PI3Kα wild type) cells
# Measurement notes: Cell viability (CellTiter-Glo 2.0) in SKBR3 cells
# Assay type: cell-based
# Measurement context: Homo sapiens, SK-BR-3, 72 h, read-out: SKBR3 (WT) Viability IC50 (nM)
Readout: IC50 (nM)
Numbers only, in nM.

Q) Look up and report IC50, with SKBR3 (PI3Kα wild type) cells as system, for Cc1cc([C@@H](C)Nc2ccc(Cl)nc2C(=O)O)c2nc(N3CCC(F)(F)CC3)c(C#N)nc2c1
A) 3970

====

# Test system: pAKT in T47D (PI3Kα H1047R mutant) cells
# Measurement notes: Inhibition of pAKT (alphaLISA Surefire Ultra AKT 1/2/3 pS473) in T47D cells
# Format: cell-based
# Measurement context: Homo sapiens; T47D (PI3Kα H1047R mutant) cells, 24 hr compound incubation, alphaLISA pS473; read-out: T47D (H1047R) pAKT 24 hr (IC50)
# Procedure: The ability of a compound of Formula (I) to inhibit the formation of pAKT was measured using alphaLISA Surefire Ultra AKT 1/2/3 (pS473) Assay Kit (#ALSU-PAKT-B50K) was obtained from Perkin Elmer (Waltham, MA). To prepare assay plates for pAKT alphaLISA assays, cells were trypsinized, resuspended in fresh media, and viable cells were counted utilizing trypan blue exclusion. Prior to seeding, cells were washed with PBS and resuspended in HBSS (Gibco, #14025092). […]
Threshold 2 nM: IC50 strictly smaller gives condition met, otherwise condition not met.

See these solved cases before continuing.
Compound	Classification
Cc1cc([C@@H](C)Nc2ccc(Cl)nc2C(=O)O)c2nc(N3C[C@@H]4C[C@H]3CO4)c(C#N)nc2c1	condition met
Cc1cc([C@@H](C)Nc2ccc(Cl)nc2C(=O)O)c2nc(N3CCCC(C(F)(F)F)C3)c(C#N)nc2c1 (some centres unmarked)	condition not met
Cc1cc([C@@H](C)Nc2ccc(Cl)nc2C(=O)O)c2nc(N3C[C@H]4CSC[C@H]4C3)c(C#N)nc2c1	condition met
Cc1cc([C@@H](C)Nc2ccc(Cl)nc2C(=O)O)c2nc(N3CC[C@H](CO)C3)c(C#N)nc2c1	condition not met

Consider the record given below.
Q) is_below(IC50, 2 nM) for COC(=O)c1nc(Cl)ccc1N[C@H](C)c1cc(C)cc2nc(C#N)c(N3CC[C@@](C)(F)C3)nc12 (single isomer, unassigned) ?
A) condition met

====

Record form. Attribute: IC50. Fill in for each entry.
# System: pAKT in T47D (PI3Kα H1047R mutant) cells
# Measurement notes: Inhibition of pAKT (alphaLISA Surefire Ultra AKT 1/2/3 pS473) in T47D cells
# Format: cell-based
# Measurement context: Homo sapiens; T47D (PI3Kα H1047R mutant) cells, 24 hr compound incubation, alphaLISA pS473; read-out: T47D (H1047R) pAKT 24 hr (IC50)
Numbers only, in nM.

Compound	Unit spec	IC50
Cc1cc([C@@H](C)Nc2ccc(Cl)nc2C(=O)O)c2nc(N3CC[C@]4(CCCO4)C3)c(C#N)nc2c1 (single isomer, unassigned) [Example 253B]	nM	5.8
Cc1cc([C@@H](C)Nc2ccccc2C(=O)O)c2nc(C3CC3)c(C#N)nc2c1	nM	72
Cc1cc([C@@H](C)Nc2ccc(Cl)nc2C(=O)O)c2nc(N3CCC[C@@H]([C@H](C)O)C3)c(C#N)nc2c1 [Example 261C]	nM	2.1
Cc1cc(C(C)Nc2ccccc2C(=O)O)c2nc(N3CCCCC3)c(C#N)nc2c1 (centres unmarked)	nM	39
Cc1cc([C@@H](C)Nc2ccc(Cl)nc2C(=O)O)c2nc(N3CC4(CC(O)C4)C3)c(C#N)nc2c1	nM	1.5

List the reported IC50 of each compound below.
1. Cc1cc([C@@H](C)Nc2ccc(Cl)nc2C(=O)O)c2nc(N3CC[C@@H](CO)C3)c(C#N)nc2c1
2. Cc1cc([C@@H](C)Nc2ccc(Cl)nc2C(=O)O)c2nc(N3C[C@H](C)OC[C@@H]3C)c(C#N)nc2c1 [Example 237B]
3. COCCNc1nc2c([C@@H](C)Nc3ccc(Cl)nc3C(=O)O)cc(C)cc2nc1C#N

A)
1: 2.6; 2: 6.1; 3: 0.9
